TARGET: UniProt:P00338
TEST_PROTOCOL: Intracellular LDH activity in lysates of MA-treated cancer cells
Assay type: cell-based
Set-up: One microgram of total protein from cell or tissue lysates was used for intracellular or in vivo LDH assays; endogenous in cells; host or cells: WiDr, DLD-1, RKO, HT29, MCF7, Huh-7, HepG2, Hep3B, HCC-95, NCI-H1793
MEASUREMENT_CONTEXT: Huh7 cells; normoxic
REPORTED_PROPERTY: IC50 (µM)
Could you give me the number in µM? Just the number is fine.

Lab note: compound C[C@H](Cc1ccc2c(c1)OCO2)[C@@H](C)Cc1ccc2c(c1)OCO2 tested on UniProt:P00338; recorded IC50 was 85.1

* * *

Tested on: NCI-H1793
TEST_PROTOCOL: Cell viability, MTT assay
Format: cell-based
MEASUREMENT_CONTEXT: Homo sapiens, normoxic
REPORTED_PROPERTY: pIC50
Notebook: values listed as pIC50 are -log10 of the concentration (mol/L).

For C[C@H](Cc1ccc2c(c1)OCO2)[C@@H](C)Cc1ccc2c(c1)OCO2 the compound record lists pIC50 as 4.01

* * *

System: MCF-7
TEST_PROTOCOL: Cell viability, MTT assay
Format: cell-based
MEASUREMENT_CONTEXT: Homo sapiens, MCF7, normoxic
REPORTED_PROPERTY: pIC50
Notebook: values listed as pIC50 are -log10 of the concentration (mol/L).

Lab note: compound C[C@H](Cc1ccc2c(c1)OCO2)[C@@H](C)Cc1ccc2c(c1)OCO2 tested on MCF-7; recorded pIC50 was 3.66

* * *

TARGET: LDHA (Homo sapiens)
TEST_PROTOCOL: Intracellular LDH activity in lysates of MA-treated cancer cells
Assay type: cell-based
Design: One microgram of total protein from cell or tissue lysates was used for intracellular or in vivo LDH assays; endogenous in cells; host or cells: WiDr, DLD-1, RKO, HT29, MCF7, Huh-7, HepG2, Hep3B, HCC-95, NCI-H1793
MEASUREMENT_CONTEXT: Hep3B cells; normoxic
Method: A purification of recombinant LDHA was performed as described previously. LDH activity was determined by measuring the decrease of absorbance at 340 nm due to the oxidation of NADH in 20 mM HEPES-K^+, 0.05% bovine serum albumin (BSA), 20 μM NADH, and 2 mM pyruvate (Sigma-Aldrich, St. Louis, MO, USA) at a pH of 7.2 using a spectrofluorometer (Spectramax M2, Molecular Devices, San Jose, CA, USA; excitation 340 nm; emission 460 nm), as described previously. […]
REPORTED_PROPERTY: pIC50
Notebook: values listed as pIC50 are -log10 of the concentration (mol/L).

For C[C@H](Cc1ccc2c(c1)OCO2)[C@@H](C)Cc1ccc2c(c1)OCO2 the compound record lists pIC50 as 4.32

* * *

TARGET: LDHA (Homo sapiens)
TEST_PROTOCOL: Intracellular LDH activity in lysates of MA-treated cancer cells
Format: cell-based
Parameters: One microgram of total protein from cell or tissue lysates was used for intracellular or in vivo LDH assays; endogenous in cells; host or cells: WiDr, DLD-1, RKO, HT29, MCF7, Huh-7, HepG2, Hep3B, HCC-95, NCI-H1793
MEASUREMENT_CONTEXT: MCF-7 cells; normoxic
REPORTED_PROPERTY: IC50
Put down the number, then write its unit next to it.

For C[C@H](Cc1ccc2c(c1)OCO2)[C@@H](C)Cc1ccc2c(c1)OCO2 [MA, bis(3,4-methylenedioxy)-8,8’-lignan] the compound record lists IC50 as 61.2 µM
